Provide the reported EC50 of each item.
biological target: Gal4-RORγ-LBD (Homo sapiens, UniProt P51449); construct: expressed in transfected cells; host or cells: HEK-293 cells (pcDNA3.1neo plasmid); experiment: Gal4-RORγ Luciferase Reporter Assay in HEK-293T Cells; assay type: cell-based; conditions: HEK-293 cells, 2 μM ursolic acid
Sequence (P51449 269-508 limits assumed): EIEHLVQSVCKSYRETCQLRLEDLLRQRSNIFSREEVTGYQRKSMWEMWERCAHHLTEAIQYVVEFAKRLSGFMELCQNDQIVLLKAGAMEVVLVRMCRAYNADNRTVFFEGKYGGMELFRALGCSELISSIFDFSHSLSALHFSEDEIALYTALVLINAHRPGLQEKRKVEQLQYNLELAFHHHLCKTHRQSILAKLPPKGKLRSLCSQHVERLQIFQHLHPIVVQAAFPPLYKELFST

-- ask Which EC50 value belongs to CC(=O)NCC[C@H]1CN(S(=O)(=O)c2cccc(C(F)(F)F)c2)c2cc(-c3cc(F)ccc3F)ccc2O1 [Compound 13] ?
-- reply < 500 nM

-- ask Which value of EC50 has been reported for O=C(O)C1(C[C@H]2CN(S(=O)(=O)c3cccc(C(F)(F)F)c3)c3cc(-c4cccc(C(F)(F)F)n4)ccc3O2)CCC1 [Compound 32BL] in the records?
-- reply < 500 nM

-- ask What value of measured EC50 is listed for CC(C)(O[C@H]1Cc2ccc(-c3cc(F)cc(OC(F)F)c3)cc2N(S(=O)(=O)c2cccc(C(F)(F)F)c2)C1)C(=O)O [Compound 83F] ?
-- reply 500 to 5000 nM
